Test system: HepG2
Experiment: cytotoxicity call (relative viability < 0.9)
Settings: 10 µM
Among all 39,000 compounds or so, about 3,300 (8.5%) were called active. The sample holds actives, similar compounds and a random draw of the others, so the mix is not that of the screen.
Outcome codes: y for active, n for inactive

chemical_string=C[C@H](CO)N1C[C@H](C)[C@@H](CN(C)C(=O)Nc2ccc3c(c2)OCO3)Oc2ccc(NC(=O)Nc3ccc(C(F)(F)F)cc3)cc2CC1=O class_name=n
chemical_string=COc1ccc(NC(=O)Nc2ccc3c(c2)C(=O)N([C@@H](C)CO)C[C@H](C)[C@@H](CN(C)Cc2ccc(Oc4ccccc4)cc2)O3)cc1 class_name=n
chemical_string=Cc1noc(C)c1S(=O)(=O)Nc1ccc2c(c1)C(=O)N([C@H](C)CO)C[C@@H](C)[C@@H](CN(C)C(=O)Nc1ccc(F)cc1)OCCCC[C@@H](C)O2 class_name=n
chemical_string=C[C@@H]1CN([C@@H](C)CO)C(=O)Cc2cc(NC(=O)Nc3ccc4c(c3)OCO4)ccc2O[C@H]1CN(C)C(=O)Nc1ccc(C(F)(F)F)cc1 class_name=n
chemical_string=COc1ccc(NC(=O)Nc2ccc3c(c2)C(=O)N([C@H](C)CO)C[C@H](C)[C@@H](CN(C)Cc2ccc(Oc4ccccc4)cc2)O3)cc1 class_name=y
chemical_string=C[C@@H]1CN([C@@H](C)CO)C(=O)Cc2cc(NC(=O)Nc3ccc(C(F)(F)F)cc3)ccc2O[C@@H]1CN(C)C(=O)Nc1ccc2c(c1)OCO2 class_name=y

====

Test system: HepG2
Experiment: cytotoxicity call (relative viability < 0.9)
Conditions: 10 µM
Among all 39,000 compounds or so, about 3,300 (8.5%) were called active. What follows is part of a selection rich in actives, with near analogues and random picks from the rest.
Outcome codes: active, inactive

compound=NCC(=O)NC1CCCCC1 measurement_target=HepG2 class_name=inactive
compound=Cc1ccc(S(=O)(=O)N[C@H]2CC[C@H](CC(=O)N3CCC(Cc4ccccc4)CC3)O[C@@H]2CO)cc1 measurement_target=HepG2 class_name=inactive
compound=C[C@@H]1CN([C@H](C)CO)C(=O)c2cc(NS(=O)(=O)c3ccc(F)cc3)ccc2O[C@H]1CN(C)Cc1ccc(-c2ccccc2)cc1 measurement_target=HepG2 class_name=active
compound=C[C@H](CO)N1C[C@H](C)[C@H](CN(C)Cc2ccc(-c3ccccc3)cc2)Oc2ccc(NS(=O)(=O)c3ccc(F)cc3)cc2C1=O measurement_target=HepG2 class_name=inactive
compound=C[C@H]1O[C@@H](O[C@H]2[C@@H](O)C[C@H](O[C@H]3[C@@H](O)C[C@H](O[C@H]4CC[C@@]5(C)[C@H](CC[C@@H]6[C@@H]5C[C@@H](O)[C@@]5(C)[C@@H](C7=CC(=O)OC7)CC[C@]65O)C4)O[C@@H]3C)O[C@@H]2C)C[C@H](O)[C@@H]1O measurement_target=HepG2 class_name=active
compound=C[C@@H]1CN([C@H](C)CO)C(=O)c2cc(NS(=O)(=O)c3ccc(F)cc3)ccc2O[C@@H]1CN(C)Cc1ccc(-c2ccccc2)cc1 measurement_target=HepG2 class_name=active
compound=Cc1ccc(S(=O)(=O)Nc2ccc3c(c2)C(=O)N([C@@H](C)CO)C[C@@H](C)[C@@H](CN(C)C(=O)NC2CCCCC2)OCCCC[C@@H](C)O3)cc1 measurement_target=HepG2 class_name=inactive
compound="CC1OC(OC2C(O)CC(OC3C(O)CC(OC4CCC5(C)C(CCC6C5CC(O)C5(C)C(C7=CC(=O)OC7)CCC65O)C4)OC3C)OC2C)CC(O)C1O (stereo not drawn)" measurement_target=HepG2 class_name=active
compound=C[C@H]1CN([C@@H](C)CO)C(=O)c2cc(NS(=O)(=O)c3ccc(F)cc3)ccc2O[C@H]1CN(C)Cc1ccc(-c2ccccc2)cc1 measurement_target=HepG2 class_name=inactive
compound=C[C@@H]1CN([C@H](C)CO)C(=O)c2cc(NS(=O)(=O)c3ccccc3)ccc2O[C@H]1CN(C)Cc1ccc(-c2ccccc2)cc1 measurement_target=HepG2 class_name=inactive
compound=OCCNC(=S)Nc1ccccc1 measurement_target=HepG2 class_name=inactive
compound=C[C@@H]1CN([C@@H](C)CO)C(=O)c2cc(NS(=O)(=O)c3ccc(F)cc3)ccc2O[C@H]1CN(C)Cc1ccc(-c2ccccc2)cc1 measurement_target=HepG2 class_name=inactive
compound=Cc1cc(=O)oc2cc(O)c(O)cc12 measurement_target=HepG2 class_name=inactive
compound=C[C@H](CO)N1C[C@H](C)[C@@H](CN(C)C(=O)Cc2ccncc2)Oc2cc(-c3cncnc3)ccc2S1(=O)=O measurement_target=HepG2 class_name=inactive
compound=CN(C)C(=O)C[C@@H]1C=C[C@H](NC(=O)C2CC2)[C@@H](CO)O1 measurement_target=HepG2 class_name=inactive
compound=Cc1ccc(S(=O)(=O)Nc2cccc3c2O[C@@H](CN(C)Cc2ccc(Cl)c(Cl)c2)[C@@H](C)CN([C@H](C)CO)C3=O)cc1 measurement_target=HepG2 class_name=inactive
compound=C[C@H](CO)N1C[C@H](C)[C@H](CN(C)Cc2ccc(C(F)(F)F)cc2)OCCCC[C@H](C)Oc2ccc(NC(=O)NC3CCCCC3)cc2C1=O measurement_target=HepG2 class_name=inactive
compound=O=c1oc2c(O)c(O)cc3c(=O)oc4c(O)c(O)cc1c4c23 measurement_target=HepG2 class_name=active
compound=C[C@H](CO)N1C[C@H](C)[C@@H](CN(C)Cc2ccc(-c3ccccc3)cc2)Oc2ccc(NS(=O)(=O)c3ccccc3)cc2C1=O measurement_target=HepG2 class_name=inactive
compound=C[C@H]1CN([C@@H](C)CO)C(=O)c2cc(NS(=O)(=O)c3cn(C)cn3)ccc2O[C@@H]1CN(C)S(=O)(=O)c1ccc(F)cc1 measurement_target=HepG2 class_name=inactive
compound=COc1ccc(S(=O)(=O)Nc2ccc3c(c2)C(=O)N([C@@H](C)CO)C[C@@H](C)[C@H](CN(C)S(=O)(=O)c2ccc(Cl)cc2)OCCCC[C@H](C)O3)cc1 measurement_target=HepG2 class_name=inactive
compound=CCN(CCCc1ccccc1)CCCc1ccccc1.O=C(O)CC(O)(CC(=O)O)C(=O)O measurement_target=HepG2 class_name=inactive
compound=C[C@H](CO)N1C[C@H](C)[C@@H](CN(C)Cc2ccc(C(F)(F)F)cc2)OCCCC[C@H](C)Oc2ccc(NC(=O)NC3CCCCC3)cc2C1=O measurement_target=HepG2 class_name=active
compound=C[C@@H]1CCCCO[C@@H](CN(C)C(=O)CCC(F)(F)F)[C@@H](C)CN([C@@H](C)CO)C(=O)c2cc(NS(=O)(=O)c3ccc(Cl)cc3)ccc2O1 measurement_target=HepG2 class_name=inactive
compound=COc1ccc(S(=O)(=O)Nc2ccc3c(c2)C(=O)N([C@H](C)CO)C[C@@H](C)[C@@H](CN(C)S(=O)(=O)c2ccc(Cl)cc2)OCCCC[C@H](C)O3)cc1 measurement_target=HepG2 class_name=inactive
compound=C[C@@H]1CCCCO[C@@H](CN(C)CC2CC2)[C@@H](C)CN([C@H](C)CO)C(=O)c2cc(NS(=O)(=O)c3cn(C)cn3)ccc2O1 measurement_target=HepG2 class_name=inactive
compound=C[C@H]1CN([C@@H](C)CO)C(=O)c2cc(NS(=O)(=O)c3ccc(F)cc3)ccc2O[C@@H]1CN(C)Cc1ccc(-c2ccccc2)cc1 measurement_target=HepG2 class_name=active
compound=C[C@H](CO)N1C[C@H](C)[C@H](CN(C)C(=O)Nc2ccc3c(c2)OCO3)OCCCC[C@H](C)Oc2ccc(NC(=O)c3ccncc3)cc2C1=O measurement_target=HepG2 class_name=inactive

====

System: HepG2
Test: cytotoxicity call (relative viability < 0.9)
Conditions: 10 µM
In all, about 39,000 compounds went through this assay and about 3,300 (8.5%) were called active. Only a selection was taken, and actives are over-represented in it overall.
measurement_kind: cytotoxicity call

chemical_string=C[C@H]1CN([C@@H](C)CO)C(=O)CCCn2cc(nn2)CO[C@@H]1CN(C)C(=O)c1ccc(N2CCN(C)CC2)cc1 measurement_target=HepG2 readout_value=active
chemical_string=C[C@@H]1CN([C@@H](C)CO)C(=O)CCCn2nncc2CO[C@H]1CN(C)C(=O)Nc1ccc(C(F)(F)F)cc1 measurement_target=HepG2 readout_value=inactive
chemical_string=C[C@H](CO)N1C[C@H](C)[C@H](CN(C)C(=O)Nc2ccc(C(F)(F)F)cc2)OCc2cnnn2CCCC1=O measurement_target=HepG2 readout_value=active
chemical_string=C[C@@H]1CN([C@@H](C)CO)C(=O)CCCn2nncc2CO[C@@H]1CN(C)C(=O)Nc1ccc(C(F)(F)F)cc1 measurement_target=HepG2 readout_value=inactive
chemical_string=C[C@H]1CN([C@@H](C)CO)C(=O)CCCn2cc(nn2)CO[C@H]1CN(C)C(=O)c1ccc(N2CCN(C)CC2)cc1 measurement_target=HepG2 readout_value=inactive
chemical_string=C[C@H](CO)N1C[C@H](C)[C@H](CN(C)C(=O)Nc2ccccc2C(F)(F)F)OCc2cn(nn2)CCCC1=O measurement_target=HepG2 readout_value=inactive
chemical_string=C[C@@H]1CN([C@@H](C)CO)C(=O)CCCn2nncc2CO[C@H]1CN(C)C(=O)Nc1ccccc1C(F)(F)F measurement_target=HepG2 readout_value=inactive
